- Tested on: A549/ATCC NSCLC
- protocol.description: NCI-60 one-dose screen, 48 h (100 = growth as untreated, 0 = no growth, -100 = all killed)
- condition.info: 10 µM unless noted
The panel holds about 83,000 compounds, 20% with a hit somewhere; the sample as a whole holds those more often.

| molecule | growth [%] |
| --- | --- |
| Cn1cc2c(c1)-c1nc(Nc3ccccc3)ncc1CC2 | 72 |
| C=CCn1c(C)nc2cc(Nc3nc(N4CCCC4)nc4ccccc34)ccc21 | 74.6 |
| CC(=O)C(C)Cc1cc2c(cc1C)C(C)(C)CCC2(C)C (stereo not given) | 79.2 |
| NC(=N\N=C/c1cccc([N+](=O)[O-])c1)/C(N)=N\N=C/c1cccc([N+](=O)[O-])c1 | 15.6 |
| O=c1oc2ccccc2c(Cl)c1Cl | 89.6 |
| CCOC(CN=Cc1cc(C)c2[nH]c3ccccc3c2c1C)OCC | 102 |
| O=C(Nc1cccc2c(O)c(N=Nc3ccc(S(=O)(=O)Nc4nccs4)cc3)cc(N=Nc3ccc(S(=O)(=O)Nc4nccs4)cc3)c12)C(Cl)Cl | 92.2 |
| O=c1ssc(Cl)c1-c1ccccc1 | 106 |
| Cc1ccccc1NC(=O)N/C(N)=N/c1nc(-c2cccc([N+](=O)[O-])c2)cs1 | 54.2 |
| CCCCCCCC/C=C\CCCCCCCCOc1ccccc1CC(=O)NCC[N+](C)(C)C | 71.4 |
